Origin of the recorded values: paper PMC6522510

What ML-2 %inh was measured for each of the following?
- Test system: ML-2
- Set-up: species or system AML cell lines (8); Primary HTS, single concentration about 10 uM, Cell Titer Glo viability; log10 luminescence, per cent inhibition relative to cycloheximide control
- CONDITION INFO: 72 h, relative to cycloheximide control, log10 luminescence; inhibitor
Structures can show the parent of a compound that is named as a salt.
One number for each entry, in %.

Hello, I would appreciate it if you could give ML-2 %inh for each entry below.
1. NC(=O)c1sc(-n2cnc3ccc(C(F)(F)F)cc32)cc1OCc1ccccc1Br
2. O=C1[C@H](CC[C@H](O)c2ccc(F)cc2)[C@@H](c2ccc(O)cc2)N1c1ccc(F)cc1
3. CCn1nc(C(=O)O)c(=O)c2cc3c(cc21)OCO3
4. COC(=O)c1sc(-n2cnc3cc(OC)c(OC)cc32)cc1OCc1ccccc1C(F)(F)F

[22.34, 2.139, -1.975, -1.915]

Hello, I would appreciate it if you could give ML-2 %inh for each entry below.
1. Cn1cc(C2=C(c3ccc4ccccc4c3)C(=O)NC2=O)c2ccccc21
2. Nc1c(C(=O)c2ccc(-c3cccnc3)cc2)cnn1-c1ccc(F)cc1
3. Fc1cccc(COc2ccc(Nc3ncnc4sc(-c5cccs5)cc34)cc2Cl)c1
4. CC(=O)Nc1nnc(S(N)(=O)=O)s1 [SJ000285803-7, ACETAZOLAMIDE]
5. C[C@@H](O)[C@@H]1NC(=O)[C@H](CCCCN)NC(=O)[C@@H](Cc2c[nH]c3ccccc23)NC(=O)[C@H](Cc2ccccc2)NC(=O)[C@@H](NC(=O)[C@H](N)Cc2ccccc2)CSSC[C@@H](C(=O)N[C@H](CO)[C@@H](C)O)NC1=O [SJ000520506-1, OCTREOTIDE ACETATE]
6. Cn1c(=O)c(Cc2ccccc2F)cc2cnc(NC3CCOCC3)nc21
7. N#Cc1ccc2c(-c3ccnc(NC4CC4)n3)c(-c3ccc(F)cc3)nn2c1
8. CCN[C@H]1C[C@H](C)S(=O)(=O)c2sc(S(N)(=O)=O)cc21 [SJ000287570-2, DORZOLAMIDE HYDROCHLORIDE]

1. 4.34
2. -1.014
3. 0.7454
4. -2.151
5. 0.4552
6. 0.5571
7. 1.142
8. -0.8167

Hello, I would appreciate it if you could give ML-2 %inh for each entry below.
1. CC1=C(C(=O)Nc2cc(Cl)c3[nH]ncc3c2)C(c2ccc(C(F)(F)F)cc2)CC(=O)N1 (centres unmarked)
2. COc1ccc(C2=C(c3cn(C)c4ccccc34)C(=O)NC2=O)cc1

[13.01, -0.4189]
